Reference for the values: ChEMBL document CHEMBL1201862

Tested on: NCI-H23
Test: NCI tumour cell line growth inhibition, 48 h
Activity calls are given as the source filed them. No stated cut-off is given here; in the data, active = GI50 up to about 1.1 µM and inactive = higher.
Permitted responses: active, inactive

Query :: Tell me the recorded outcome of this test for CCOC(=O)/C(=C\NC(C)(C)CO)c1nc2ccccc2[nH]1 .
Result :: inactive

----------
System: A498
Assay: NCI tumour cell line growth inhibition, 48 h
Calls of active or inactive are those of the source. Rule as the data show it: active = GI50 up to about 1.1 µM and inactive = higher.
Permitted responses: active, inactive

Worked set:
Query :: Tell me the recorded outcome of this test for CCOP(=O)(O)C(C)(C)NC .
Result :: inactive

Query :: Also Cc1cccc(NC(=S)Nc2ccc([N+](=O)[O-])cc2)n1 ?
Result :: inactive

Query :: Also O=NN(CCCl)C(=O)N[C@H]1CC[C@H](CC(=O)O)CC1 ?
Result :: inactive

Query :: Also C/C(=N\N)C(CN1CCOCC1)C(c1ccccc1)c1c(O)c2ccccc2oc1=O (configuration not stated) ?
Result :: inactive

Query :: Also COc1cc(C(=O)Oc2ccc3c(c2)OCO3)cc(OC)c1OC ?
Result :: inactive

Others:
Query :: Tell me the recorded outcome of this test for NC(=O)SCCC(N)C(=O)O (configuration not stated) .
Result :: inactive

Query :: Also O=C1c2cc3c(cc2NC(c2ccccc2F)C1O)OCO3 (configuration not stated) ?
Result :: inactive

Query :: Also CC(C)(C)OC(=O)NCCCCC(N)NC(=O)c1ccccc1 (configuration not stated) ?
Result :: inactive
